target: DRB1*0802 (Homo sapiens, UniProt P01903+P01911, A100R/A103L/A169T/F76Y/H45Y/I96F/K41T/L162R/M171V/P40S/Q125H/Q178H/Q39Y/Q99D/R218S/R42G/S66Y/V115G/W38E); assay: biochemical; type: binding
pIC50: −log10 of the molar value.
Endpoint: pIC50

- Molecular String: "CSCC[C@H](NC(=O)[C@@H](NC(=O)[C@H](CCCNC(=N)N)NC(=O)[C@@H](N)CC(=O)O)C(C)C)C(=O)N[C@H](C(=O)N[C@@H](CO)C(=O)N1CCC[C@H]1C(=O)N[C@@H](CC(C)C)C(=O)N[C@@H](C)C(=O)N[C@H](C(=O)N[C@H](C(=O)N[C@@H](Cc1c[nH]c2ccccc12)C(=O)N[C@@H](Cc1c[nH]c2ccccc12)C(=O)N[C@@H](CC(N)=O)C(=O)N[C@@H](CCCNC(=N)N)C(=O)O)[C@@H](C)O)C(C)C)C(C)C"
  Obs Value: 5.45
